These entries and their values trace back to PubChem BioAssay AID2060604.

- Tested on: 379773-124-R-J2-PDC complex spheroids, viability % test/control
- Method summary: Anticancer human tumor 379773-124-R-J2-PDC patient-derived endometrial carcinoma cell line growth inhibition [CLK]; active means viability on the fitted dose curve at most 10% of control; inactive means the rest
- Test parameters: second compound 0.316 µM; first compound 0.00949 µM
Outcome (select one): y = active, n = inactive

// query Short answer needed: outcome of this test for CC(C)CC(NC(=O)C(Cc1ccccc1)NC(=O)c1cnccn1)B(O)O (stereo not drawn) + CNC(=O)c1ccc(Nc2nc(OC3CCCC3)c3c(-c4ccc5nc(C)oc5c4)c[nH]c3n2)c(OC)c1 ?
// result y

// query Short answer needed: outcome of this test for NC(=O)C(=Cn1cnc(-c2cc(C(F)(F)F)cc(C(F)(F)F)c2)n1)c1cncnc1 + CNC(=O)c1ccc(Nc2nc(OC3CCCC3)c3c(-c4ccc5nc(C)oc5c4)c[nH]c3n2)c(OC)c1 ?
// result n

// query Short answer needed: outcome of this test for C=CC(=O)Nc1cc(Nc2nccc(-c3cn(C)c4ccccc34)n2)c(OC)cc1N(C)CCN(C)C + CN1CCN(c2cc(C(=O)Nc3cc4cc(-c5cnn(C)c5)ccc4cn3)ccn2)CC1 ?
// result n

###

- System: 379773-124-R-J2-PDC complex spheroids, viability % test/control
- Method summary: Anticancer human tumor 379773-124-R-J2-PDC cell line growth inhibition [CLK];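 further: compound exposure lasted seven days before the viability readout; 100% = DMSO vehicle control wells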
- Test parameters: second compound 0.1 µM; first compound 0.0316 µM; stronger effect = lower value
Measurement name: viability, T/C (%)
Answer in %, number only, no unit symbol.

[
  {
    "Compound": "CC1(C)CCC(CN2CCN(c3ccc(C(=O)NS(=O)(=O)c4ccc(NCC5CCOCC5)c([N+](=O)[O-])c4)c(Oc4cnc5[nH]ccc5c4)c3)CC2)=C(c2ccc(Cl)cc2)C1 + CN1CCN(c2cc(C(=O)Nc3cc4cc(-c5cnn(C)c5)ccc4cn3)ccn2)CC1",
    "System tested": "379773-124-R-J2-PDC complex spheroids, viability % test/control",
    "viability, T/C, %": 84.1
  },
  {
    "Compound": "COc1c(OCCCN2CCOCC2)ccc2c3n(c(=NC(=O)c4cnc(N)nc4)nc12)CCN3 + CN1CCN(c2cc(C(=O)Nc3cc4cc(-c5cnn(C)c5)ccc4cn3)ccn2)CC1",
    "System tested": "379773-124-R-J2-PDC complex spheroids, viability % test/control",
    "viability, T/C, %": 65.4
  }
]

// query Dear colleague, I am looking for the recorded viability, T/C of the following compound: CC(CO)NC(=O)c1cc(-c2ccc(Cl)cc2)nn(-c2cnn(C)c2)c1=O (stereo not given) + CN1CCN(c2cc(C(=O)Nc3cc4cc(-c5cnn(C)c5)ccc4cn3)ccn2)CC1
// result 96.9

// query Dear colleague, I am looking for the recorded viability, T/C of the following compound: CC(CO)NC(=O)c1cc(-c2ccc(Cl)cc2)nn(-c2cnn(C)c2)c1=O (stereo not given) + CNC(=O)c1ccc(Nc2nc(OC3CCCC3)c3c(-c4ccc5nc(C)oc5c4)c[nH]c3n2)c(OC)c1
// result 48.2

// query Dear colleague, I am looking for the recorded viability, T/C of the following compound: CCc1c2c(nc3ccc(O)cc13)-c1cc3c(c(=O)n1C2)COC(=O)[C@]3(O)CC + CN1CCN(c2cc(C(=O)Nc3cc4cc(-c5cnn(C)c5)ccc4cn3)ccn2)CC1
// result 5.68

###

- Test system: 379773-124-R-J2-PDC complex spheroids, viability % test/control
- Method summary: Anticancer human tumor 379773-124-R-J2-PDC cell line growth inhibition [CLK];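 further: compound exposure lasted seven days before the viability readout; 100% = DMSO vehicle control wells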
- Test parameters: second compound 0.0316 µM; first compound 3.16 µM; stronger effect = lower value
Reported viability, T/C values are given for each entry in this list.
Answer in %, number only, no unit symbol.

[
  {
    "Compound": "Nc1ccccc1NC(=O)c1ccc(CNC(=O)OCc2cccnc2)cc1 + CNC(=O)c1ccc(Nc2nc(OC3CCCC3)c3c(-c4ccc5nc(C)oc5c4)c[nH]c3n2)c(OC)c1",
    "Units of measure": "%",
    "Experimental value": 29.8
  },
  {
    "Compound": "O=C(c1cc(Cc2n[nH]c(=O)c3ccccc23)ccc1F)N1CCN(C(=O)C2CC2)CC1 + CNC(=O)c1ccc(Nc2nc(OC3CCCC3)c3c(-c4ccc5nc(C)oc5c4)c[nH]c3n2)c(OC)c1",
    "Units of measure": "%",
    "Experimental value": 69.9
  },
  {
    "Compound": "COc1ccc([C@@H](O)c2cc(-c3ncnc4cc(N5CCOCC5)ccc34)c(F)cc2Cl)nn1 + CNC(=O)c1ccc(Nc2nc(OC3CCCC3)c3c(-c4ccc5nc(C)oc5c4)c[nH]c3n2)c(OC)c1",
    "Units of measure": "%",
    "Experimental value": 58.7
  }
]

// query Dear colleague, I am looking for the recorded viability, T/C of the following compound: CCCS(=O)(=O)Nc1ccc(F)c(C(=O)c2c[nH]c3ncc(-c4ccc(Cl)cc4)cc23)c1F + CNC(=O)c1ccc(Nc2nc(OC3CCCC3)c3c(-c4ccc5nc(C)oc5c4)c[nH]c3n2)c(OC)c1
// result 72.3

// query Dear colleague, I am looking for the recorded viability, T/C of the following compound: COc1ccc([C@@H](O)c2cc(-c3ncnc4cc(N5CCOCC5)ccc34)c(F)cc2Cl)nn1 + CN1CCN(c2cc(C(=O)Nc3cc4cc(-c5cnn(C)c5)ccc4cn3)ccn2)CC1
// result 71.8

// query Dear colleague, I am looking for the recorded viability, T/C of the following compound: C#Cc1c(F)ccc2cc(O)cc(-c3ncc4c(N5CC6CCC(C5)N6)nc(OCC56CCCN5CC(F)C6)nc4c3F)c12 (stereo not given) + CN1CCN(c2cc(C(=O)Nc3cc4cc(-c5cnn(C)c5)ccc4cn3)ccn2)CC1
// result 103

// query Dear colleague, I am looking for the recorded viability, T/C of the following compound: CC(=O)O[C@H]1C(=O)[C@@]2(C)[C@H]([C@H](OC(=O)c3ccccc3)[C@]3(O)C[C@H](OC(=O)[C@H](O)[C@@H](NC(=O)c4ccccc4)c4ccccc4)C(C)=C1C3(C)C)[C@]1(OC(C)=O)CO[C@@H]1C[C@@H]2O + CNC(=O)c1ccc(Nc2nc(OC3CCCC3)c3c(-c4ccc5nc(C)oc5c4)c[nH]c3n2)c(OC)c1
// result 15.4

// query Dear colleague, I am looking for the recorded viability, T/C of the following compound: CC1COCCN1c1cc(C2(S(C)(=N)=O)CC2)nc(-c2ccnc3[nH]ccc23)n1 (stereo not given) + CNC(=O)c1ccc(Nc2nc(OC3CCCC3)c3c(-c4ccc5nc(C)oc5c4)c[nH]c3n2)c(OC)c1
// result 34.5

// query Dear colleague, I am looking for the recorded viability, T/C of the following compound: CC(CO)NC(=O)c1cc(-c2ccc(Cl)cc2)nn(-c2cnn(C)c2)c1=O (stereo not given) + CNC(=O)c1ccc(Nc2nc(OC3CCCC3)c3c(-c4ccc5nc(C)oc5c4)c[nH]c3n2)c(OC)c1
// result 72.4

// query Dear colleague, I am looking for the recorded viability, T/C of the following compound: O=c1[nH]cc(F)c(=O)[nH]1 + CNC(=O)c1ccc(Nc2nc(OC3CCCC3)c3c(-c4ccc5nc(C)oc5c4)c[nH]c3n2)c(OC)c1
// result 70.8

###

- Tested on: 379773-124-R-J2-PDC complex spheroids, viability % test/control
- Method summary: Anticancer human tumor 379773-124-R-J2-PDC cell line growth inhibition [CLK];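 further: compound exposure lasted seven days before the viability readout; 100% = DMSO vehicle control wells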
- Test parameters: second compound 3.16 µM; first compound 1 µM; stronger effect = lower value
- Source text: A high-throughput screen of multi-cell type tumor spheroids was designed to identify active combinations of […] and targeted small molecules. Complex spheroids include a stromal component modeled by human endothelial cells (HUVEC) and fibroblasts modeled by human mesenchymal stem cells (MSCs). […] Compounds. […] If the clinical Cmax for an agent had not been determined, the highest concentration tested was 10 microM. […]
Measurement name: viability, T/C (%)
Answer in %, number only, no unit symbol.

[
  {
    "Molecule": "COc1c(OCCCN2CCOCC2)ccc2c3n(c(=NC(=O)c4cnc(N)nc4)nc12)CCN3 + CNC(=O)c1ccc(Nc2nc(OC3CCCC3)c3c(-c4ccc5nc(C)oc5c4)c[nH]c3n2)c(OC)c1",
    "viability, T/C, %": 0.59
  }
]

// query # get_value(readout= viability, T/C, system= 379773-124-R-J2-PDC complex spheroids, viability % test/control) for CCc1c2c(nc3ccc(O)cc13)-c1cc3c(c(=O)n1C2)COC(=O)[C@]3(O)CC + CN1CCN(c2cc(C(=O)Nc3cc4cc(-c5cnn(C)c5)ccc4cn3)ccn2)CC1
// result 0.08

// query # get_value(readout= viability, T/C, system= 379773-124-R-J2-PDC complex spheroids, viability % test/control) for COc1cccc2c1C(=O)c1c(O)c3c(c(O)c1C2=O)CC(O)(C(=O)CO)CC3OC1CC(N)C(O)C(C)O1 (stereo not drawn) + CNC(=O)c1ccc(Nc2nc(OC3CCCC3)c3c(-c4ccc5nc(C)oc5c4)c[nH]c3n2)c(OC)c1
// result 1.27
